# targetSystem: human adenosine A2A receptors (Homo sapiens)
# Sequence (P29274 whole entry): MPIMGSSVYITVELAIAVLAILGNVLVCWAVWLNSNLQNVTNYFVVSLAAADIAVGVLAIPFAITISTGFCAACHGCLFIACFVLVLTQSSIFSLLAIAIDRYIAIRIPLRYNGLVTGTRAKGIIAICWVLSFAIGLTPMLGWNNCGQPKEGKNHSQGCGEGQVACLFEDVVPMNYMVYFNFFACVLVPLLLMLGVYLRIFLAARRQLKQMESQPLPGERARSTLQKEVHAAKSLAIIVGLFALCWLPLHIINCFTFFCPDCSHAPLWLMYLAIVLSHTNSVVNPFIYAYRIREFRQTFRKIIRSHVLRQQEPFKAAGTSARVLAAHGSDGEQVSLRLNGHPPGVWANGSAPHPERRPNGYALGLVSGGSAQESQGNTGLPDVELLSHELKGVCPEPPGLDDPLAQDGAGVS
measurementName: Ki (µM)
Report the value in µM with no unit label.

Use the examples below as a reference point.
OC(c1ccccc1Br)c1cc(C(F)(F)F)nc2c(C(F)(F)F)cccc12 (stereo not drawn) [Example 21] = 0.743
Cc1cccc2c(C(O)C3CCCCC3)cc(C(F)(F)F)nc12 (stereo not drawn) [Example 29] = 0.965
CCc1cccc2c(C(O)c3ccsc3)cc(C(F)(F)F)nc12 (stereo not drawn) [Example 32] = 1.07
CC(O)(c1cc2ccccc2o1)c1cc(C(F)(F)F)nc2c(C(F)(F)F)cccc12 (stereo not drawn) [Example 51] = 1.52

Query: Write down the reported Ki of OC(c1ccoc1)c1cc(C(F)(F)F)nc2c(C(F)(F)F)cccc12 (stereo not drawn) [Example 5] , test system: human adenosine A2A receptors (Homo sapiens).
Result: 1.03

Query: Write down the reported Ki of OC(c1ccsc1)c1cc(C(F)(F)F)nc2c(Cl)cccc12 (stereo not drawn) [Example 47] , test system: human adenosine A2A receptors (Homo sapiens).
Result: 1.07
